- assayed system: CDK2/Cyclin E complex (Homo sapiens)
- assay info: CDK2/Cyclin E fluorescence-based microfluidic mobility shift assay (CDK2 Biochemical Caliper Assay)
- run conditions: read-out: Biochemical CDK2/CyclinE Caliper IC50
pIC50: −log10 of the molar value.
Give pIC50 for every item shown.

Would you kindly share the measured pIC50 for Cc1cc(CC(=O)Nc2cc([C@@H]3C[C@H](Oc4nnccc4C(C)C)CO3)[nH]n2)on1 ?
≥ 7.00

Would you kindly share the measured pIC50 for Cc1cc(C)nc(Nc2cc(C3CCCC3)[nH]n2)n1 ?
4.00 to 6.00

Would you kindly share the measured pIC50 for COCCOc1ccnc(Nc2cc(C3CCCC3)[nH]n2)n1 ?
4.00 to 6.00

Would you kindly share the measured pIC50 for Cc1cc(CC(=O)Nc2cc([C@H]3CC[C@@H](n4cc(C(C)C)[nH]c4=O)C3)[nH]n2)on1 (single isomer, unassigned) ?
4.00 to 6.00

Would you kindly share the measured pIC50 for COCc1cc2c(Nc3cc([C@H]4C[C@@H](COC(=O)N5[C@@H](C)CC[C@@H]5C)C4)[nH]n3)nccn2n1 ?
≥ 7.00

Would you kindly share the measured pIC50 for COCc1cc2c(Nc3cc([C@H]4C[C@@H](OC(=O)N[C@H](C)C5(C)COC5)CO4)[nH]n3)nccn2n1 ?
4.00 to 6.00

Would you kindly share the measured pIC50 for COCc1cc2c(Nc3cc([C@H]4C[C@@H](OC(=O)NC56CC(F)(C5)C6)CO4)[nH]n3)nccn2n1 ?
≥ 7.00

Would you kindly share the measured pIC50 for Cc1cc(CC(=O)Nc2cc([C@H]3C[C@@H](CC(=O)NC(C)C)C3)[nH]n2)on1 ?
4.00 to 6.00

###

- assayed system: CDK2/Cyclin E complex (Homo sapiens, UniProt P24941)
- assay info: CDK2/Cyclin E fluorescence-based microfluidic mobility shift assay (CDK2 Biochemical Caliper Assay)
- run conditions: read-out: Biochemical CDK2/CyclinE Caliper IC50
property measured: IC50

Would you kindly share the measured IC50 for COCc1cc(C(=O)Nc2cc([C@H]3CC[C@@H](Oc4cnccc4C)C3)[nH]n2)n(C)n1 (single isomer, unassigned) ?
1 to 100 µM

Would you kindly share the measured IC50 for CC(C)c1cc(Nc2cc(C3CCCC3)[nH]n2)n2ncnc2n1 ?
1 to 100 µM

Would you kindly share the measured IC50 for CC(C)NC(=O)O[C@H]1CC[C@@H](c2cc(Nc3ncnc4ncccc34)n[nH]2)C1 (single isomer, unassigned) ?
≤ 0.1 µM

Would you kindly share the measured IC50 for CC(C)NC(=O)O[C@H]1CC[C@@H](c2cc(Nc3ccc4c(n3)C(C)(C)NC4=O)n[nH]2)C1 (single isomer, unassigned) ?
≤ 0.1 µM

Would you kindly share the measured IC50 for Cc1cc(CC(=O)Nc2cc([C@@H]3CC[C@H](OC(=O)CC(C)C)C3)[nH]n2)on1 (single isomer, unassigned) ?
≤ 0.1 µM

Would you kindly share the measured IC50 for COCc1cc(C(=O)Nc2cc([C@H]3CC[C@@H](Oc4cncnc4)C3)[nH]n2)n(C)n1 (single isomer, unassigned) ?
1 to 100 µM

Would you kindly share the measured IC50 for CC(C)NC(=O)O[C@H]1CO[C@@H](c2cc(Nc3nccc4ncsc34)n[nH]2)C1 ?
≤ 0.1 µM

Would you kindly share the measured IC50 for Cc1cc(CC(=O)Nc2cc([C@@H]3CC[C@H](Oc4ccccc4C(C)C)C3)[nH]n2)on1 (single isomer, unassigned) ?
0.1 to 0.25 µM

Would you kindly share the measured IC50 for CC(C)NC(=O)O[C@H]1CC[C@@H](c2cc(NC=O)n[nH]2)C1 (single isomer, unassigned) ?
0.25 to 1 µM

Would you kindly share the measured IC50 for Cc1nc(Nc2cc(C3CCCC3)[nH]n2)cc(-c2ccco2)n1 ?
1 to 100 µM

Would you kindly share the measured IC50 for CC(C)NC(=O)OC[C@H]1C[C@H](c2cc(Nc3nccc4ncsc34)n[nH]2)C1 ?
0.25 to 1 µM

Would you kindly share the measured IC50 for COCc1cc(C(=O)Nc2cc([C@H]3C[C@@H](COC(=O)NC(C)C)C3)[nH]n2)n(C)n1 ?
≤ 0.1 µM

Would you kindly share the measured IC50 for COCc1cc(C(=O)Nc2cc([C@@H]3C[C@@H](OC)[C@H](OC(=O)NC(C)C)C3)[nH]n2)n(C)n1 (single isomer, unassigned) ?
1 to 100 µM

Would you kindly share the measured IC50 for COc1cccc2ccc(Nc3cc(C4CCCC4)[nH]n3)nc12 ?
1 to 100 µM

Would you kindly share the measured IC50 for COCc1cc(C(=O)Nc2cc([C@@H]3CC[C@H](Oc4c(C)ccnc4C)C3)[nH]n2)n(C)n1 (single isomer, unassigned) ?
1 to 100 µM

Would you kindly share the measured IC50 for CC(C)NC(=O)O[C@@H]1CC[C@H](c2cc(Nc3ncnc4ncccc34)n[nH]2)C1 (single isomer, unassigned) ?
≤ 0.1 µM

Would you kindly share the measured IC50 for CC(C)NC(=O)O[C@@H]1CC[C@H](c2cc(NC=O)n[nH]2)C1 (single isomer, unassigned) ?
0.25 to 1 µM

Would you kindly share the measured IC50 for COCc1cc2c(Nc3cc([C@H]4C[C@@H](OC(=O)NC5(C)CCC5)CO4)[nH]n3)nccn2n1 ?
≤ 0.1 µM

Would you kindly share the measured IC50 for CC(C)NC(=O)O[C@H]1CO[C@@H](c2cc(Nc3nccn4nc(CN5CCCC5)cc34)n[nH]2)C1 ?
≤ 0.1 µM

Would you kindly share the measured IC50 for Cc1cc(CC(=O)Nc2cc([C@H]3CC[C@@H](OC(=O)N4CC5CC(F)(C5)C4)C3)[nH]n2)on1 ?
0.1 to 0.25 µM

Would you kindly share the measured IC50 for COCc1nc2ccnc(Nc3cc([C@H]4C[C@@H](OC(=O)NC5(COC)CC5)CO4)[nH]n3)c2s1 ?
≤ 0.1 µM

Would you kindly share the measured IC50 for Cc1cc(CC(=O)Nc2cc([C@H]3CC[C@@H](n4cc(C)[nH]c4=O)C3)[nH]n2)on1 (single isomer, unassigned) ?
0.25 to 1 µM

Would you kindly share the measured IC50 for Cc1cc(CC(=O)Nc2cc([C@H]3CC[C@@H](Oc4nscc4C4CC4)C3)[nH]n2)on1 (single isomer, unassigned) ?
≤ 0.1 µM

Would you kindly share the measured IC50 for COCc1cc2c(Nc3cc([C@H]4C[C@@H](OC(N)=O)CO4)[nH]n3)nccn2n1 ?
1 to 100 µM

Would you kindly share the measured IC50 for COCc1cc(C(=O)Nc2cc([C@H]3CC[C@H](c4cnc(C)cn4)C3)[nH]n2)n(C)n1 (single isomer, unassigned) ?
1 to 100 µM

Would you kindly share the measured IC50 for Cc1cc(CC(=O)Nc2cc([C@H]3CC[C@@H](Oc4cccnc4C)C3)[nH]n2)on1 (single isomer, unassigned) ?
0.1 to 0.25 µM

Would you kindly share the measured IC50 for Cc1cc2c(c(Nc3cc(C4CCCC4)[nH]n3)n1)C(=O)NC2=O ?
1 to 100 µM
